- test_summary: Terminal half life in Han-Wistar rat at 0.9 mg/kg, iv
- Format: ADME, organism-based
- experimental_setup: in vivo, read-out: beta t1/2 (converted)
metric_name: half-life (min)
Numbers only, in min.

Consider the compound C[C@]12C=CC(=O)C=C1CC[C@@H]1[C@@H]2[C@@H](O)C[C@@]2(C)[C@H]1CC[C@]2(O)C(=O)CO and give its measured half-life.
24

* * *

- test_summary: Aqueous solubility of the compound
- Assay type: physicochemical
- experimental_setup: aqueous; read-out: solubility
For each entry below, report its solubility value.
One number for each entry, in µM.

Some compounds with recorded solubility:
| compound | solubility (µM) |
| --- | --- |
| CC[C@H](NC(=O)C(F)(F)F)[C@H](Oc1ccc(C#N)cc1Br)c1cnc(C2CC2)nc1 | 110 |
| COc1ccc([C@@H](Oc2ccc(C#N)cc2)[C@H](C)NC(=O)C(C)(F)F)cn1 | 290 |
| Cc1ncccc1NC(=O)c1ccc2c(c1)CC[C@@H]1C[C@@](O)(C(F)(F)F)CC[C@@]21Cc1ccccc1 [DAGROCORAT] | 3.2 |

// for each compound below, give its solubility
1. Cn1cc(-n2ncc3cc(O[C@H](c4ccccc4)[C@@H](NC(=O)C(C)(F)F)C4CC4)ccc32)ccc1=O
2. CC#C[C@]1(O)CC[C@H]2[C@@H]3CCC4=CC(=O)CCC4=C3[C@@H](c3ccc(N(C)C)cc3)C[C@@]21C [MIFEPRISTONE]
3. C[C@H](NC(=O)C(C)(F)F)[C@H](Oc1ccc2c(cnn2-c2ccc(=O)n(C)c2)c1)c1ccccc1

1. 48
2. 6.9
3. 140

// for each compound below, give its solubility
1. CC(C)[C@H](NC(=O)C(C)(F)F)[C@H](Oc1ccc2c(cnn2-c2cccn(C)c2=O)c1)c1ccccc1
2. CC(C)[C@H](NC(=O)C(C)(F)F)[C@H](Oc1ccc2c(cnn2-c2cc(C#N)c(=O)n(C)c2)c1)c1ccccc1

1. 160
2. 11
